- experimental.protocol: Solubility at pH 2.3, chemiluminescent nitrogen detector (C.3.b)
- Assay type: physicochemical
recorded.endpoint: solubility

**Q:** Value lookup for solubility; key = Nc1ccccc1NC(=O)c1cnc(N2CCN(C(/C=C/c3ccccc3)CO)CC2)nc1 (stereo not shown)
**A:** 3.7 mg/mL
